// data source = patent US20130136748A1

Biological target: T1, cHER3ECD (Maccaca fascicularis HER3 extracellular domain) (Macaca fascicularis, UniProt P21860 20-643 (human entry))
T1 construct: also called cyno HER3ECD; cyno HER3-ECD
T1 chain: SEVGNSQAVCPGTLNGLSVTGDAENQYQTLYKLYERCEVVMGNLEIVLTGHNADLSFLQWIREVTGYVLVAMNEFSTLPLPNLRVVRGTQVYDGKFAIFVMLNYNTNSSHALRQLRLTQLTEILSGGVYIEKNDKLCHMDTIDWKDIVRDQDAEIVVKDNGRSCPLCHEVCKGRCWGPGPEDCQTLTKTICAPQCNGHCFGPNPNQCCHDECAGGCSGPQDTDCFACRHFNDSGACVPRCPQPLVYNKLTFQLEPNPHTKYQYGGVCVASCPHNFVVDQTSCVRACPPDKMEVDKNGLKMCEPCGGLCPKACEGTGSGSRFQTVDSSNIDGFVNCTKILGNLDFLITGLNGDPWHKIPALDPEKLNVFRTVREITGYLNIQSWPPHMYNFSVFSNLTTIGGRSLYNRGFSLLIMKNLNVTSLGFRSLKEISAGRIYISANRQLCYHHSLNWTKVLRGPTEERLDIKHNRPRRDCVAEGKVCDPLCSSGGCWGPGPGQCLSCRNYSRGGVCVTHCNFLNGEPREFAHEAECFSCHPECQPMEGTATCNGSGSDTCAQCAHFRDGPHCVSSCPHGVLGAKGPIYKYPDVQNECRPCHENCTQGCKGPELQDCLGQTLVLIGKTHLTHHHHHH
Experiment: ELISA, coated cHER3-ECD
Can you tell me pEC50 for the items I'm about to list?
Answers are plain numbers, as −log10 of the molar value.

stdin: Kindly indicate its recorded pEC50. Item: 23F05 (VHH) VHH: EVQLVESGGGLVQAGGSLRLSCAASGFTFDGYAIGWFRQAPGKEREGVSCISGGDGRSYYADSVKGRFTVSSDNAKNTLYLEMNSLKPEDTAVYYCAVIWGPYCSDSYEYLYEYDYWGQGTQVTVSS
stdout: 9.36

Next:
stdin: Kindly indicate its recorded pEC50. Item: 18B05 (VHH) VHH: EVQLVESGGGLVQAGGSLRLSCAASGLTFGSAPMGWYRQAPGKERELVAYISGDERIWYGDSVKGRFTISRDTTKNTLYLQMNSLKPEDTAVYYCVSDVKVRHWGQGTQVTVSS
stdout: 9.35
